Biological target: insulin (Homo sapiens, UniProt P01308)
Construct: insulin (purchased from Sigma) was dissolved in deionized water
Sequence (P01308 25-54 limits assumed, species assumed): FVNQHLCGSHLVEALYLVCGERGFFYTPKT
Sequence (P01308 90-110 limits assumed, species assumed): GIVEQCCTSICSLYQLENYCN
Assay: Insulin β structure recognition (thioflavin T fluorescence)
Settings: insulin 0.1 mg/ml with β structure; average of two measurements; read-out: Insulin β sheet structure recognition EC50
measured_quantity: EC50 (nM)
Answers are plain numbers, in nM.

Known results for compounds:
compound	measured_quantity	numeric_value
CN(C)c1ccc(/N=N/c2ccc(N=C=S)cc2)cc1	EC50	120
CCN(CC)c1ccc(/N=N/c2ccc(Br)cn2)c(O)c1	EC50	38
CN(C)c1ccc(/N=C2\C=CC(=O)c3ccccc32)cc1	EC50	449
CN(C)c1ccc(/C=C/c2cccc(/C=C/c3ccc(N(C)C)cc3)[n+]2C)cc1.[I-]	EC50	113
Nc1c(/N=N/c2ccc(-c3ccc(/N=N/c4cc(S(=O)(=O)O)c5ccccc5c4N)cc3)cc2)cc(S(=O)(=O)O)c2ccccc12 [Congo red, reference compound]	EC50	153
CCN(CC)c1ccc(/N=C/c2ccc(N(CC)CC)cc2O)cc1	EC50	129

Next item in the queue.
// sample O=C(O)c1cc(/N=N/c2ccc(-c3ccc(/N=N/c4ccc(O)c(C(=O)O)c4)cc3)cc2)ccc1O [Chrysamine G, reference compound] , its EC50 was 253

---

Biological target: amyloid β protein (Homo sapiens, UniProt P05067)
Construct: the amyloid β protein (purchased from Peptide Laboratory) was dissolved in a potassium phosphate buffer (pH7.4); purchased Peptide Laboratory
Sequence (P05067 672-711 limits assumed): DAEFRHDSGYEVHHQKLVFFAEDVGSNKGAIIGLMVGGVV
Assay: β structure recognition of amyloid β protein (thioflavin T fluorescence)
Assay type: binding
Conditions: test compound 1 μM; thioflavin T 3 μM; average of duplicated experiments; read-out: β Structure recognition (%)
Counter-ions that a name gives are not always drawn.
measured_quantity: β structure recognition (%) at 1 µM
Give bare numbers, in %.

The following compounds have reported results that may help.
compound	measured_quantity	measurement_units	numeric_value
CCN(CC)c1ccc(N=Nc2ccc(N(C)C)cc2)c(NC(N)=O)c1	β structure recognition (%) at 1 µM	%	71.6
O=C(O)c1cc(/N=N/c2ccc(-c3ccc(/N=N/c4ccc(O)c(C(=O)O)c4)cc3)cc2)ccc1O [Chrysamine G, reference compound]	β structure recognition (%) at 1 µM	%	66.8
Cc1cc(N(C)C)ccc1/N=N/c1ccccc1	β structure recognition (%) at 1 µM	%	42.8
CN(C)c1ccc(/N=N/c2ccc(N)cc2)cc1	β structure recognition (%) at 1 µM	%	68.2
CN(C)c1ccc(SSc2ccc(N(C)C)cc2)cc1	β structure recognition (%) at 1 µM	%	21.6
CN(C)c1ccc(/N=C2/C=CC(=O)c3ccccc32)cc1	β structure recognition (%) at 1 µM	%	27.8
Nc1ccc(/N=N/c2cccc3ccccc23)c(N)c1	β structure recognition (%) at 1 µM	%	73
Nc1ccc(/C=C/c2ccc(N)cc2)cc1 [SA-324, 4,4′-diaminostylbene (2HCl salt)]	β structure recognition (%) at 1 µM	%	36

For every listed record, write down its β structure recognition (%) at 1 µM.
1. CN(C)c1ccc(N=Nc2ccc(N)cc2Cl)cc1
2. CCN(CC)c1ccc(/C=C/c2cccc(/C=C/c3ccc(N(CC)CC)cc3)[n+]2C)cc1
3. CN(C)c1ccc(/C=N/c2ccc(F)cc2)cc1

Result block:
1. 35.7
2. 78.5
3. 6.8

Items follow; give β structure recognition (%) at 1 µM for each.
1. CN(C)c1ccc(N=Nc2ccccn2)cc1
2. Nc1ccc(/N=N/c2ccc([N+](=O)[O-])cc2)cc1
3. CN(C)c1ccc(/C=C/c2cccc(/C=C/c3ccc(N(C)C)cc3)[n+]2C)cc1.[I-]

Result block:
1. 69.1
2. 58
3. 97.7

Count: 3. Required value per item: β structure recognition (%) at 1 µM.
1. CN(C)c1ccc(/N=N/c2ccc(C(=O)O)cc2)cc1
2. Nc1ccc(SSc2ccc(N)cc2)cc1 [SA-260, 4-aminophenyldisulfide]
3. CCN(CC)c1ccc(/N=N/c2ccc(S(=O)(=O)O)cc2)cc1 [SA-163, Ethyl Orange Na salt]

Result block:
1. 53.5
2. 83.1
3. 30.7

Readout β structure recognition (%) at 1 µM for `CCc1ccc(/N=C/c2ccc(N(C)C)cc2)cc1` , test system amyloid β protein (Homo sapiens, UniProt P05067), was 7.9
